Assay: gradient 5% acetonitrile 3 min, to 50% in 2 min, to 85% in 15 min, held 3 min, 100 µL/min
Details: column: Zorbax Extend-C18 2.1 x 50 mm; eluents: water / acetonitrile, 0.1% formic acid
test readout: RP-LC retention time (s)

O=C(CN1c2ccc(Br)cc2-c2ccccc2S1(=O)=O)NCc1cccnc1    686
CC(C)n1cc(CN2CCCCCNC(=O)[C@@H]3CCC[C@@H]32)c2ccccc21    701
CCC(=O)N1CCc2sc(C(=O)N3CCN(c4ccc(OC)cc4)CC3)cc2C1    717
COc1cc(NC(=O)N2CCC(c3nc(C(=O)N(C)C)c(C)o3)CC2)cc(OC)c1    711

Data origin, for the record: the METLIN SMRT retention time set (Domingo-Almenara et al. 2019)
